# TARGET ENTITY: panel of 40 bromodomain-containing proteins (Homo sapiens, UniProt Q92793)
# Construct: T7 phage strains displaying bromodomains were grown in parallel; made in house; host or cells: E. coli host derived from BL21, infected with T7 phage
# Sequence (Q92793 1081-1197): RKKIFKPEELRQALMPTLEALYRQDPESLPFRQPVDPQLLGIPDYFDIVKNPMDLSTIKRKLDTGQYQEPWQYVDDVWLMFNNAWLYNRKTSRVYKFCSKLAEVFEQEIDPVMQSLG
# EXPERIMENT: Bromodomain binding assay (T7 phage, qPCR): further proteins of the panel
# APPLIED CONDITIONS: CREBBP
# Method: T7 phage strains displaying bromodomains were grown in parallel in 24-well blocks in an E. coli host derived from the BL21 strain. E. coli were grown to log-phase and infected with T7 phage from a frozen stock (multiplicity of infection=0.4) and incubated with shaking at 32° C. until lysis (90-150 minutes). The lysates were centrifuged (5,000×g) and filtered (0.2 μm) to remove cell debris. […] The bromodomain concentration in the eluates was measured by qPCR. […]
Listing: Kd of selected compounds

COMPOUND | Kd, nM
CCOc1cc(C(=O)N[C@H]2CC[C@H](O)CC2)ccc1Nc1cc2c(cn1)N(C)C(=O)c1ccccc1N2C [Compound T62] | 1200
CCOc1cc(C(=O)N2CCC(N3CCCC3)CC2)ccc1Nc1cc2c(cn1)N(C)C(=O)c1ccccc1N2C [Compound 46] | 3300

* * *

# TARGET ENTITY: recombinant human ERK5 catalytic domain (Homo sapiens)
# Construct: Recombinant human ERK5 catalytic domain radiometric assays; purchased Reaction Biology, Corp (Malvern, Pa.), which ran the assay as a service
# Sequence (Q13164 55-347 limits assumed): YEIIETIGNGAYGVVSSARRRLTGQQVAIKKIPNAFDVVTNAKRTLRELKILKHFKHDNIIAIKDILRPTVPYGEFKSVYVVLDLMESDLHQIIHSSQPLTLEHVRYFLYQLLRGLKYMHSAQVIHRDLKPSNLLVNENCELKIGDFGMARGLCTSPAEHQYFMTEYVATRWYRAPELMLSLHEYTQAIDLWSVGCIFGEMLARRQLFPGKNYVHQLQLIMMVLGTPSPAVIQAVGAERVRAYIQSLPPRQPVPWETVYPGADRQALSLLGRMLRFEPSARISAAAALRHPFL
# EXPERIMENT: Recombinant human ERK5 radiometric (HotSpot) assay
# Type: biochemical
# APPLIED CONDITIONS: 10 μM ATP, 20 μM myelin basic protein substrate; read-out: rhERK5 IC50
// reported IC50 for each item listed

COMPOUND | TARGET ENTITY | IC50
CCOc1cc(C(=O)N[C@H]2CC[C@@H](O)CC2)ccc1Nc1cc2c(cn1)N(C)C(=O)c1ccccc1N2C [Compound T63] | recombinant human ERK5 catalytic domain (Homo sapiens) | > 200 nM
CCOc1cc(C(=O)N2CCN(C3CCN(C)CC3)CC2)ccc1Nc1cc2c(cn1)N(C)C(=O)c1ccccc1S2 [Compound T99] | recombinant human ERK5 catalytic domain (Homo sapiens) | 50 to 200 nM
CCOc1cc(C(=O)N2CCN(C3CCN(C)CC3)CC2)ccc1Nc1cc2c(cn1)N(C)C(=O)c1ccccc1O2 [Compound T98] | recombinant human ERK5 catalytic domain (Homo sapiens) | 20 to 50 nM
CN1C(=O)c2ccccc2N(C)c2cc(N[C@H]3CC[C@H](NS(=O)(=O)C4CC4)CC3)ncc21 [Compound T129] | recombinant human ERK5 catalytic domain (Homo sapiens) | 50 to 200 nM

* * *

Reported inhibition at 0.1 µM values follow for various compounds
# TARGET ENTITY: ERK5 (Homo sapiens, UniProt Q13164)
# Construct: screened for activity against several kinases in Jurkat cells; endogenous in cells; host or cells: Jurkat cell lysate
# Sequence (Q13164 whole entry): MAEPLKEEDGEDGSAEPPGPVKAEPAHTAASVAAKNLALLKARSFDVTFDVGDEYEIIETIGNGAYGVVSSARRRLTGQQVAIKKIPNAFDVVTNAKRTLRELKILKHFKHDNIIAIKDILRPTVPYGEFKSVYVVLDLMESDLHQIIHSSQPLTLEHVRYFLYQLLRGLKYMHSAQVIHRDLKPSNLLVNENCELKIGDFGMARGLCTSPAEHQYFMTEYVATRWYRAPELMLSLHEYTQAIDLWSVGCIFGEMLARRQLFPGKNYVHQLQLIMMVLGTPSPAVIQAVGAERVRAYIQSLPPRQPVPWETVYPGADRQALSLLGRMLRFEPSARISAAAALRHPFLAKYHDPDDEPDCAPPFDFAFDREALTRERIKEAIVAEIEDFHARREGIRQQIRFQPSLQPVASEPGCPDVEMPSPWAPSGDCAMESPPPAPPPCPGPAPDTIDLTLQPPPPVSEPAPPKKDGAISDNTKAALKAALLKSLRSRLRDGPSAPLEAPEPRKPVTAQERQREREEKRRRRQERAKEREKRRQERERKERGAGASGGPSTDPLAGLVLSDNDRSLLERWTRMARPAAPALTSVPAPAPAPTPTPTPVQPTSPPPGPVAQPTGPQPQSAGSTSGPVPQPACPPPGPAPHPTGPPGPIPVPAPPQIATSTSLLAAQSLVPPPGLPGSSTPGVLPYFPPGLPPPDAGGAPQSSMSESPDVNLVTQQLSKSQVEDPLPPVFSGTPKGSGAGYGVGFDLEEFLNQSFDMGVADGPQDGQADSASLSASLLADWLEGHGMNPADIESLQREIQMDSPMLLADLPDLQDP
# EXPERIMENT: Probe-based (AX9989 acyl phosphate ATP probe) kinase profiling in Jurkat lysate: ERK5
# Format: binding
# APPLIED CONDITIONS: screening concentration 0.1 μM; read-out: Kinase inhibition % at indicated screening concentration: ERK5
ENDPOINT NAME: inhibition at 0.1 µM

COMPOUND | ENDPOINT NAME | OBSERVED MEASUREMENT
CCOc1cc(C(=O)N2CC[C@H](O)C2)ccc1Nc1cc2c(cn1)N(C)C(=O)c1occc1N2C [Compound 17] | inhibition at 0.1 µM | 75 to 90%
CCOc1cc(C(=O)N2CCN(CC3CC3)CC2)ccc1Nc1cc2c(cn1)N(C)C(=O)c1ccccc1N2C [Compound 10] | inhibition at 0.1 µM | 75 to 90%
CCOc1cc(C(=O)N(C)CCN2CCCC2)ccc1Nc1cc2c(cn1)N(C)C(=O)c1ccccc1N2C [Compound 28] | inhibition at 0.1 µM | > 90%
CCOc1cc(C(=O)N2CCN(C(C)(C)C)CC2)ccc1Nc1cc2c(cn1)N(C)C(=O)c1ccccc1N2C [Compound 94] | inhibition at 0.1 µM | 75 to 90%
